Record set of pEC50 for target or system LHRH binding sites on human ovarian cancer cells (EFO-27).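 Further: Cell-associated radioactivity on confluent EFO-27 monolayers in 96-well plates, measured by microplate scintillation counting.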
Scale note: pEC50 = -log10(concentration in M).

Data request, read-out pEC50, for CN(CC(=O)N[C@@H](Cc1c[nH]cn1)C(=O)N[C@@H](Cc1c[nH]c2ccccc12)C(=O)N[C@@H](CO)C(=O)N[C@@H](Cc1c[nH]cn1)C(=O)N[C@H](CCCNC(N)=O)C(=O)N[C@@H](Cc1c[nH]c2ccccc12)C(=O)N[C@@H](Cc1ccc(C(=O)c2ccccc2)cc1)C(=O)N1CCC[C@H]1C(=O)NNC(N)=O)C(=O)CN1CCN(CC(=O)O)CCN(CC(=O)O)CCN(CC(=O)O)CC1
4.85

Now consider N=C(N)NCCC[C@H](NC(=O)[C@@H](Cc1ccc2ccccc2c1)NC(=O)CN1CCN(CC(=O)O)CCN(CC(=O)O)CCN(CC(=O)O)CC1)C(=O)N[C@@H](Cc1c[nH]c2ccccc12)C(=O)N[C@@H](CO)C(=O)N[C@@H](Cc1c[nH]cn1)C(=O)N[C@H](CCCNC(=N)N)C(=O)N[C@@H](Cc1c[nH]c2ccccc12)C(=O)N[C@@H](Cc1ccc(C(=O)c2ccccc2)cc1)C(=O)N1CCC[C@H]1C(=O)NCCOCCN [BRU-2968] and answer again.
6.62
